Target: T1, human LSR with a V5/His tag fused to the C-terminal, on the LSR-expressing cell strain (human, UniProt Q86X29 1-649)
T1 construct: In panning Lot 1 a mammalian LSR-expressing cell strain was used whose construct is not described; also called human LSR-expressing chicken cell strain; not shown: V5/His tag of vector pcDNA3.1-V5/His-TOPO
T1 sequence: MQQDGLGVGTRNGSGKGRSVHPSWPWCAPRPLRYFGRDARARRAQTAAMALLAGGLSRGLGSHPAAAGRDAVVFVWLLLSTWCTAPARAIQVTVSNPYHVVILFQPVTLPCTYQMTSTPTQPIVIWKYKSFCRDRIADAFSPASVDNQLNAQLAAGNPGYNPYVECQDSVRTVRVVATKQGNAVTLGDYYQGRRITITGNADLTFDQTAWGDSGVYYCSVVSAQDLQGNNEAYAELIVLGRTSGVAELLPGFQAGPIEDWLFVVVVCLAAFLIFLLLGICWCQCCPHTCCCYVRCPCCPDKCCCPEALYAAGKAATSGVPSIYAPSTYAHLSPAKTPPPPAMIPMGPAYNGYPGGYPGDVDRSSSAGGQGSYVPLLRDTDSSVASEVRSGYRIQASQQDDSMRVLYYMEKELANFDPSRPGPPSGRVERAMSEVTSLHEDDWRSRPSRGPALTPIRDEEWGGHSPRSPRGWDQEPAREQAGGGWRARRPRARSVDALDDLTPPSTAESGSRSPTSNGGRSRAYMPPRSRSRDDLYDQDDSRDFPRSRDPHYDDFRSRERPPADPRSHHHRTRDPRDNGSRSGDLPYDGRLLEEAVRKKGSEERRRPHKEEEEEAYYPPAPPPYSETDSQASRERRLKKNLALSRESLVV
Experiment: cell panning of the scFv phage library on the LSR-expressing cell strain, reactivity confirmed by FACS, positive phage clones selected
Property label: binding result

SEQ ID NO 5 (scFv phage antibody clone, anti-LSR antibody 1-25 sequence) (scFv, the phage coat protein fusion is not described; also called 1-25 scFv) scFv: AVTLDESGGGLQTPGGALSLVCKASGFDFSSYEMQWVRQAPGKGLEWVTGISGSGSSTRYGSAVKGRATISRDNGQSTVRLQLNNLRAEDTGTYYCARGSTIDAWGHGTEVTVSTGGGGSGGGGSGGGGSDVALTQPASVSANPGETVKITCSGGSSYAGSYYYGWYQQKSPGSAPVTVIYYNDQRPSDIPSRFSGSTSGSTATLTITGVQVEDEAVYICGTYEDSGGVFGAGTTLTV: binds
SEQ ID NO 6 (scFv phage antibody clone, anti-LSR antibody 1-43 sequence) (scFv, the phage coat protein fusion is not described; also called 1-43 scFv) scFv: AVTLDESGGGLQTPGGALSLVCEASGFDFSSHEMQWVRQAPGKGLEWVAGISGAGSSTRYGSAVQGRATISRDNGQSTVRLQLNNLRAEDTGTYYCARGSLIDAWGHGTEVIVSTGGGGSGGGGSGGGGSDVALTQPASVSANPGETVKITCSGGGSYYGSYYYSWHQQKSPGSAPVTVIYENNQRPSDIPSRFSGSKSGSTATLTITGVQAEDEAVYFCGSYDSSAGLFGAGTTLTV: binds
SEQ ID NO 4 (scFv phage antibody clone, anti-LSR antibody 27-6 sequence) (scFv, the phage coat protein fusion is not described; also called 27-6 scFv) scFv: AVTLDESGGGLQMPGGALSLVCRASGFDFSSYEMQWIRQAPGKGLEWVAGISGAGSGTRYGSAVKGRATISRDNGQSTVRLQLNNLRAEDTGIYFCARSSNIDAWGHGTEVTVSTGGGGSGGGGSGGGGSDVALTQPASVSANLGGTVKITCSGGGRYAESYYYGWYQQKSPGSTPVTVIYWNDKRPSNIPSRFSGSLSGSTNTLTITGVQVEDEAVYFCGSYEDSRSAFGAGTTLTV: binds
